target: EGFR (Homo sapiens); construct: A431 cell lysate (SUGEN, Inc.); host or cells: A431; test: cell EGF assay; type: cell-based
pIC50: −log10 of the molar value.
TEST READOUT: pIC50

1: COc1ccccc1-c1ccc2c(c1)NC(=O)/C2=C\c1[nH]c(C)c(C(=O)NCCN(C)C)c1-c1ccccc1 [Example 45]
2: CN(C)CCNC(=O)c1[nH]c(/C=C2\C(=O)Nc3ccc(Br)cc32)c2c1CCCC2 [Example 89]
Request: // pick min by pIC50: 1 , 2 Pick one and reply with its label.
Response: 1

###

target: GST-Flk1 (Mus musculus, UniProt P35918); construct: GST-Flk1cd purified from sf9 recombinant baculovirus transformation; host or cells: Sf9 (baculovirus); assay: GST-FLK-1 bioassay (bio flkGST); format: biochemical
Sequence (P35918 784-1345 limits assumed): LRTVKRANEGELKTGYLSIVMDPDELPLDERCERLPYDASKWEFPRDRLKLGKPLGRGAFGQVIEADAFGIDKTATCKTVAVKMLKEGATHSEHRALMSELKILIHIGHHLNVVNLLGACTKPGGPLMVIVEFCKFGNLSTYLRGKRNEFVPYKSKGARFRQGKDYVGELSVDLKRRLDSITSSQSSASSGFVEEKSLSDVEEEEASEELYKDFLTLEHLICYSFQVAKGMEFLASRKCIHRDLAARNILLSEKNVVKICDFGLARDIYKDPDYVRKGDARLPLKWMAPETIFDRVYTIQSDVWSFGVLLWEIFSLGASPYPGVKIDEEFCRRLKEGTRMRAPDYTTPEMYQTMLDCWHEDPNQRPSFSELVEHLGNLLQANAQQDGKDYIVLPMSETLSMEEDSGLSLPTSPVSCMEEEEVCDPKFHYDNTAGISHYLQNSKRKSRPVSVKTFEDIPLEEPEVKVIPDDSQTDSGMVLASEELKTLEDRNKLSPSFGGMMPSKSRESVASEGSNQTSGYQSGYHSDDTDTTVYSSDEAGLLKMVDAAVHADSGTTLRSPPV
pIC50: −log10 of the molar value.
TEST READOUT: pIC50

1: COc1cccc(-c2ccc3c(c2)NC(=O)/C3=C\c2[nH]c(C)c(C(=O)NCCN(C)C)c2C)c1 [Example 55]
2: CCN(CC)CCCNC(=O)c1[nH]c(/C=C2\C(=O)Nc3cc(-c4ccccc4)ccc32)cc1C [Example 14]
3: CC(C)c1[nH]c(/C=C2\C(=O)Nc3ccc(Br)cc32)c(-c2ccccc2)c1C(=O)NCCCN1CCCC1 [Example 38]
Request: Re-order the entries listed above so their pIC50 values fall from first to last. In plain terms: list the labels in the order you were asked to.
Response: 1, 3, 2
(1: 6.57, 3: 5.38, 2: 4.89)

###

biological target: HER-2 kinase (Homo sapiens); construct: Use EGFr/HER-2 chimera/3T3-C7 cell line for this assay; It is expressed in mouse NIH 3T3 clone C7 cells; P00533 (Epidermal growth factor receptor); assay: Cellular HER-2 kinase assay; conditions: read-out: Her2 Kinase IC50
TEST READOUT: IC50 (µM)

Recorded IC50, per entry:
STRUCTURE SMILES	TESTED ON	IC50 (µM)
Cc1[nH]c(/C=C2\C(=O)Nc3ccc(-c4ccccc4)cc32)c(C)c1C(=O)NCCN1CCCC1	HER-2 kinase (Homo sapiens)	6.94
Cc1c(C(=O)NCCCN2CCCC2)[nH]c(/C=C2\C(=O)Nc3ccccc32)c1C(=O)c1ccccc1	HER-2 kinase (Homo sapiens)	4.05
CC(=O)c1c(/C=C2\C(=O)Nc3ccc(Br)cc32)[nH]c(C(=O)NCCCN2CCOCC2)c1C	HER-2 kinase (Homo sapiens)	47.2
COc1ccc(C(C)C)cc1-c1ccc2c(c1)NC(=O)/C2=C\c1[nH]c(C)c(C(=O)NCCN2CCCC2)c1C	HER-2 kinase (Homo sapiens)	3.01
CC(C)c1[nH]c(/C=C2\C(=O)Nc3ccc(Br)cc32)c(-c2ccccc2)c1C(=O)NCCCN1CCCC1	HER-2 kinase (Homo sapiens)	2.16

P: Cc1cc(C(=O)NCCCN2CCCC2)[nH]c1/C=C1\C(=O)Nc2ccc(Br)cc21
Q: CCN(CC)CCNC(=O)c1c(C)[nH]c(/C=C2\C(=O)Nc3ccc(-c4ccccc4)cc32)c1C
Request: Which item exceeds the other in IC50, P or Q ? Answer by quoting the chosen item's label.
Response: Q

###

biological target: EGFR (Homo sapiens, UniProt P00533); construct: A431 cell lysate (SUGEN, Inc.); host or cells: A431; test: EGFR bioassay (bio EGF); type: biochemical
Sequence (P00533 25-1210): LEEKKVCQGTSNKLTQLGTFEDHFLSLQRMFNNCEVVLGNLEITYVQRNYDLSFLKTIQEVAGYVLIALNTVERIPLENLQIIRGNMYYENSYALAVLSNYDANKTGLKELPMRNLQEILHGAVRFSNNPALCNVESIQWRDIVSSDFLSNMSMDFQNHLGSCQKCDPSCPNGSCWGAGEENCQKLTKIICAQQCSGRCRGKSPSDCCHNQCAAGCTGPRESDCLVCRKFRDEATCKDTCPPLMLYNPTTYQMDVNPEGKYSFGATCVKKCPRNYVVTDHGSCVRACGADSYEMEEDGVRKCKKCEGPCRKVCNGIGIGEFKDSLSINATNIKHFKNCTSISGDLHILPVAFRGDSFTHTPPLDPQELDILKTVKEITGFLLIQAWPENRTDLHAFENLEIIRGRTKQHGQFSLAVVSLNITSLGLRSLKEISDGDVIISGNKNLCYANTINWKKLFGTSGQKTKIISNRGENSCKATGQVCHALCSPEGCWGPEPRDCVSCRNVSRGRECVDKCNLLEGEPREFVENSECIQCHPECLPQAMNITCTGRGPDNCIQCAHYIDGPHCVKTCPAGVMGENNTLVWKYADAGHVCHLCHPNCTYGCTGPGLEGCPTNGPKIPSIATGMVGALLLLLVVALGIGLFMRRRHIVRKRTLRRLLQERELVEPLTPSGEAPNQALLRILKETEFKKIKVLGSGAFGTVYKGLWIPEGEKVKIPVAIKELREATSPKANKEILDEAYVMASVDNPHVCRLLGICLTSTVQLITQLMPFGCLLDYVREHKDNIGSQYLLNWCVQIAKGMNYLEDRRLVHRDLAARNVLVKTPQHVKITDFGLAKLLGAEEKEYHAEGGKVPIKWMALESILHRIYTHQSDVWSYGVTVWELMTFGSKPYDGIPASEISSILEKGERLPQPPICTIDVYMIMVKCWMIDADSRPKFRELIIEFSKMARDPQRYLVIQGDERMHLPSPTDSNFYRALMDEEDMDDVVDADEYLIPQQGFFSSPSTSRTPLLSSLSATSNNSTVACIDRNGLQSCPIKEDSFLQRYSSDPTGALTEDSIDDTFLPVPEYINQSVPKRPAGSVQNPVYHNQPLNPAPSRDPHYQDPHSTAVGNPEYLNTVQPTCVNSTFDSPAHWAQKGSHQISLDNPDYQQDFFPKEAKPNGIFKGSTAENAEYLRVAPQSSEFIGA
pIC50: −log10 of the molar value.
TEST READOUT: pIC50

Consider the following illustrative entries.
STRUCTURE SMILES	pIC50
CCN(CC)CCCNC(=O)c1[nH]c(/C=C2\C(=O)Nc3ccc(Br)cc32)c2c1CCCC2	5.59
COc1ccc(C(C)C)cc1-c1ccc2c(c1)NC(=O)/C2=C\c1[nH]c(C)c(C(=O)NCCN2CCCC2)c1C	5.29
Cc1[nH]c(/C=C2\C(=O)Nc3ccc(Br)cc32)c(-c2ccccc2)c1C(=O)NCCN(C)C	4.68
O=C1Nc2ccc(Br)cc2/C1=C/c1[nH]c(C(=O)NCCCN2CCCC2)c2c1CCCC2	5.16

A: CC(=O)c1c(/C=C2\C(=O)Nc3ccc(Br)cc32)[nH]c(C(=O)NCCN2CCCC2)c1C
B: CN(C)CCNC(=O)c1[nH]c(/C=C2\C(=O)Nc3ccc(Br)cc32)c2c1CCCC2
Request: // which entry reports the smaller pIC50, A or B ? Could you answer with the label of the item you picked?
Response: A
(A: 4.09, B: 5.07)

###

molecular target: PDGFR-β (Homo sapiens, UniProt P09619)
Sequence (P09619 33-1106): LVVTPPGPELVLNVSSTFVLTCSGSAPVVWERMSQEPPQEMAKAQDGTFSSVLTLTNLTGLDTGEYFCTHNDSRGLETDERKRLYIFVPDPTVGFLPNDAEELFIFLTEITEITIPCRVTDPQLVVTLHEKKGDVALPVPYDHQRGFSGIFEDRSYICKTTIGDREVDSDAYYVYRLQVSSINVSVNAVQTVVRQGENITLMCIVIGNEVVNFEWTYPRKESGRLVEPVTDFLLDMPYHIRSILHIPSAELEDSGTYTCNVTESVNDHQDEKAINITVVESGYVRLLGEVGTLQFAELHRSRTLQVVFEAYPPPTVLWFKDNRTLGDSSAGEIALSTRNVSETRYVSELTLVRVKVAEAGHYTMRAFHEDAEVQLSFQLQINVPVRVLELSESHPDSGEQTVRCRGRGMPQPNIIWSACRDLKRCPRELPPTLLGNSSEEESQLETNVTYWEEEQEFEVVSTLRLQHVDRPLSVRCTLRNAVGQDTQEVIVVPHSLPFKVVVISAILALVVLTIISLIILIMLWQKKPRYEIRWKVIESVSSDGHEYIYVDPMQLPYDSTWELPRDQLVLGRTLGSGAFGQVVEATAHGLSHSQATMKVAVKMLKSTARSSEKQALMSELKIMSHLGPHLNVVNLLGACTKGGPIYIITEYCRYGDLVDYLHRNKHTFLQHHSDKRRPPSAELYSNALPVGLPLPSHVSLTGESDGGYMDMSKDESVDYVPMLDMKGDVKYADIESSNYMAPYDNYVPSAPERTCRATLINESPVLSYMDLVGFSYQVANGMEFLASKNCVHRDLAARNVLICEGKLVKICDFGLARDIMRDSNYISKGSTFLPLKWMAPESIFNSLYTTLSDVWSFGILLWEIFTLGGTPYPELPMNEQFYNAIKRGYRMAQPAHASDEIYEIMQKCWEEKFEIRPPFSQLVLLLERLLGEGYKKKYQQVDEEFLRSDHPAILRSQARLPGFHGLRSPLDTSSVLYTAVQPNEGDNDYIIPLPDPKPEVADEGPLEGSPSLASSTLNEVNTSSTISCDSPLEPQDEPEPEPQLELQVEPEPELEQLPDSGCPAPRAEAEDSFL
TEST READOUT: IC50 (µM)

I: CCCCc1ccc(-c2ccc3c(c2)NC(=O)/C3=C\c2[nH]c(C)c(C(=O)NCCN3CCCC3)c2C)cc1
II: Cc1[nH]c(/C=C2\C(=O)Nc3ccc(S(=O)(=O)Nc4cccnc4)cc32)c(C)c1C(=O)NCCN1CCCC1
Request: Larger number for IC50: I , or II ? Field: selected label. Fill in the label of the entry you choose.
Response: I
(I: 61.6 µM, II: 12.5 µM)

###

target: HER-2 kinase (Homo sapiens, UniProt P04626); construct: Use EGFr/HER-2 chimera/3T3-C7 cell line for this assay; It is expressed in mouse NIH 3T3 clone C7 cells; P00533 (Epidermal growth factor receptor); test: Cellular HER-2 kinase assay; conditions: read-out: Her2 Kinase IC50
Sequence (P04626 720-987 limits assumed): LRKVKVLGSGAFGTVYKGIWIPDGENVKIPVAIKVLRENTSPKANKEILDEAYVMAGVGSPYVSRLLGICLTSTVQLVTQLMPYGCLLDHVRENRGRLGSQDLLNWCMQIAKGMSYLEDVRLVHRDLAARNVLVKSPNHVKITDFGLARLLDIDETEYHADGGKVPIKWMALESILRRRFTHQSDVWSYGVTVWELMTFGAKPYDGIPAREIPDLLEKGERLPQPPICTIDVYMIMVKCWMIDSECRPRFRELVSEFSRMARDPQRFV
pIC50: −log10 of the molar value.
TEST READOUT: pIC50

STRUCTURE SMILES	TESTED ON	pIC50
CC(C)c1[nH]c(/C=C2\C(=O)Nc3ccc(Br)cc32)c(-c2ccccc2)c1C(=O)NCCCN1CCN(C)CC1	HER-2 kinase (Homo sapiens, UniProt P04626)	5.20
CC(=O)c1c(/C=C2\C(=O)Nc3ccc(Br)cc32)[nH]c(C(=O)NCCCN2CCCC2)c1C	HER-2 kinase (Homo sapiens, UniProt P04626)	5.39

###

biological target: HER-2 kinase (Homo sapiens, UniProt P04626); construct: Use EGFr/HER-2 chimera/3T3-C7 cell line for this assay; It is expressed in mouse NIH 3T3 clone C7 cells; P00533 (Epidermal growth factor receptor); test: Cellular HER-2 kinase assay; conditions: read-out: Her2 Kinase IC50
pIC50: −log10 of the molar value.
TEST READOUT: pIC50

MOLECULE	TESTED ON	pIC50
Cc1[nH]c(/C=C2\C(=O)Nc3cccc(CCO)c32)c(C)c1C(=O)N1CCN(C)CC1 [Example 85]	HER-2 kinase (Homo sapiens, UniProt P04626)	5.42
Cc1c(C(=O)NCCCN2CCCC2)[nH]c(/C=C2\C(=O)Nc3ccc(Br)cc32)c1C(=O)c1ccccc1 [Example 24]	HER-2 kinase (Homo sapiens, UniProt P04626)	5.27
Cc1c(C(=O)NCCCN2CCCC2)[nH]c(/C=C2\C(=O)Nc3ccc(F)cc32)c1C(=O)c1ccccc1 [Example 28]	HER-2 kinase (Homo sapiens, UniProt P04626)	5.57
COc1ccc2c(c1)/C(=C/c1[nH]c(C(=O)NCCCN3CCCC3)c(C)c1C(=O)c1ccccc1)C(=O)N2 [Example 27]	HER-2 kinase (Homo sapiens, UniProt P04626)	5.41
CCN(CC)CCNC(=O)c1c(C(C)C)[nH]c(/C=C2\C(=O)Nc3ccc(Br)cc32)c1-c1ccccc1 [Example 39]	HER-2 kinase (Homo sapiens, UniProt P04626)	5.45

###

Values of IC50 reported for GST-FGFR1 (Homo sapiens, UniProt P11362) appear below.
TEST READOUT: IC50 (µM)

COMPOUND	UNIT TAG	IC50
Cc1cc(C(=O)O)[nH]c1/C=C1\C(=O)Nc2ccc(Cl)cc21 [Example 5]	µM	16.1

I: Cc1[nH]c(/C=C2\C(=O)Nc3ccc(S(=O)(=O)Nc4ccccc4)cc32)c(C)c1C(=O)N1CCN(C)CC1 [Example 86]
II: Cc1cc(C(=O)O)[nH]c1/C=C1\C(=O)Nc2ccccc21 [Example 1]
III: Cc1[nH]c(/C=C2\C(=O)Nc3ccc(S(=O)(=O)Nc4cccc(Cl)c4)cc32)c(C)c1C(=O)NCCN1CCCC1 [Example 83]
Request: Order the records, beginning with the lowest IC50 and ending with the highest. Present the labels in the sequence the task asks for.
Response: III, I, II
(III: 0.41 µM, I: 1.3 µM, II: 15.2 µM)

###

biological target: GST-Flk1 (Mus musculus); construct: GST-Flk1cd purified from sf9 recombinant baculovirus transformation; test: GST-FLK-1 bioassay (bio flkGST)
TEST READOUT: IC50 (µM)

STRUCTURE SMILES	IC50 / µM
CCN(CC)CCCNC(=O)c1c(C)[nH]c(/C=C2\C(=O)Nc3ccc(-c4ccccc4)cc32)c1C	0.39

a: CCN(CC)CCNC(=O)c1ccc(/C=C2\C(=O)Nc3cc(-c4ccccc4)ccc32)[nH]1
b: Cc1[nH]c(/C=C2\C(=O)Nc3cccc(CCO)c32)c(C)c1C(=O)N1CCN(C)CC1
Request: Could you kindly indicate whether a or b has the higher IC50 value? State the label of the item chosen.
Response: a
